Cited source: patent US7638145B2

Each entry below lists one item and its recorded Area of discoloration value.
Tested on: Aquilaria trees
METHOD DESCRIPTION: Drill wounds treated with different compounds to stimulate agarwood production (Example 5)
Format: in vivo
MEASUREMENT PARAMETERS: after 12 months; approx 0.1-0.2 g per drill wound
ATTRIBUTE MEASURED: Area of discoloration

[
  {
    "COMPOUND": "O=CO",
    "TARGET ENTITY": "Aquilaria trees",
    "RESULT": 28.5
  },
  {
    "COMPOUND": "O=C[C@H](O)[C@@H](O)[C@H](O[C@@H]1O[C@H](CO)[C@@H](O)[C@H](O)[C@H]1O)[C@H](O)CO",
    "TARGET ENTITY": "Aquilaria trees",
    "RESULT": 9.9
  },
  {
    "COMPOUND": "[Cl-].[Na+] [NaCl, Sodium chloride]",
    "TARGET ENTITY": "Aquilaria trees",
    "RESULT": 49.3
  },
  {
    "COMPOUND": "O=C([O-])[O-].[Ca+2] [Lime, calcium carbonate]",
    "TARGET ENTITY": "Aquilaria trees",
    "RESULT": 10.0
  }
]
